target: TRIM25 CC-PRY/SPRY (UniProt Q14258 189-630); assay: filter binding; ITC and filter binding: 20 mM MES pH 6.5, 75 mM NaCl, 0.5 mM TCEP (ITC 20 C, filter binding on ice); NMR: 20 mM Na phosphate pH 6.5, 150 mM NaCl, 2 mM TCEP, 293 K; conditions: protein: recombinant; tags: His-Trx (removed); chain copies: 2; label: 5' 32P; hairpin
Sequence (Q14258 189-630): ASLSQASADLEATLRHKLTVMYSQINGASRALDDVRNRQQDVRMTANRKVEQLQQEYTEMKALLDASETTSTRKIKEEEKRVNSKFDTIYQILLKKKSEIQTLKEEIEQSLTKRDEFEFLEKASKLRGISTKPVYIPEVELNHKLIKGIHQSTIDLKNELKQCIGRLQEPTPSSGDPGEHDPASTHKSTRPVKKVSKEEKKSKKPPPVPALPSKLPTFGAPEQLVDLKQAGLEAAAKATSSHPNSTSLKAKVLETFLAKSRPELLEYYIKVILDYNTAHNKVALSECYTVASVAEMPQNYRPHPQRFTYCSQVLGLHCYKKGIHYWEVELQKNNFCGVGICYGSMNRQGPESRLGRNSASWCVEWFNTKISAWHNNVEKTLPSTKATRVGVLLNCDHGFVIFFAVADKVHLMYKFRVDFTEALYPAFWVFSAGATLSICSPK
readout type: Kd (nM)
Kindly provide the numeric value in nM only, without the unit symbol.

Query block: # Kd lookup, item GUGUAAAAUGAUGGAAUAUAUACUAUCGUUUUACGC (structured_RNA) [roX2 stem-loop (SL7 in text, SL6 in Table 2)]
Result block: 18.1
